target: T1, human single-chain CD1a-β2M recombinant protein (Human B2M-CD1a ECD-Avi-His6) (human); assay: SPR (Biacore), IgG; antigen taken as human CD1a
T1 construct: Biotinylated in the HTRF, phage selection and Gyrolab assays; also called human CD1a; CD1a protein
T1 sequence (chain, as listed by the source limits assumed): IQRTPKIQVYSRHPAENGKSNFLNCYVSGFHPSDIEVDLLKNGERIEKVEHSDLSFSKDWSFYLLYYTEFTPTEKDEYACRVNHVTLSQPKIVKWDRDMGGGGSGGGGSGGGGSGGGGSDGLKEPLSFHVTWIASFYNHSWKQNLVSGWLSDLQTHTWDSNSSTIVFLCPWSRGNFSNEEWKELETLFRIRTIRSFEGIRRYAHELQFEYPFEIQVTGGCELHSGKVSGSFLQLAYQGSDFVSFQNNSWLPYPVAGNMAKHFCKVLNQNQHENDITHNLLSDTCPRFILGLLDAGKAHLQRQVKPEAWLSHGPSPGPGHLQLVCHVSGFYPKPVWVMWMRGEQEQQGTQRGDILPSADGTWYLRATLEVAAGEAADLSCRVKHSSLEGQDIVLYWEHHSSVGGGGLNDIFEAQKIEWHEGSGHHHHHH
measured-metric: Kd (nM)
Please reply with the bare figure in nM and do not write the unit itself.

Request: Name the recorded Kd of the item Ab681 (antibody, human IgG1, kappa, V domains shown, Optimized variant of Ab138; human IgG1 effector null / kappa; HC with or without terminal lysine) VH: EVQLVESGGGLVQPGGSLRLSCAASGFTFTDHYMHWVRQAPGKGLEWVAHTRDKAGGYTTESNPAVKGRFTISRDNAKNSLYLQMNSLRAEDTAVYYCARETTRIPTGWFAYWGQGTLVTVSS VL: DIQMTQSPSSLSASVGDRVTITCLASEDIYFDLAWYQQKPGKAPKLLIYGGDRLQEGVPSRFSGSGSGTDYTLTISSLQPEDFATYYCQQSESYPYTFGQGTKLEIKR in your answer.
Result: 1.22

// moving on: another record for Kd
Request: Assign Kd to the following record: Ab609 (antibody, human IgG1, kappa, V domains shown, Optimized variant of Ab138; human IgG1 effector null / kappa; HC with or without terminal lysine) VH: EVQLVESGGGLVQPGGSLRLSCAASGFTFEDHYMHWVRQAPGKGLEWVAHTRDKAGGYTTESNPAVKGRFTISRDNAKNSLYLQMNSLRAEDTAVYYCARETTRIPTGWFAYWGQGTLVTVSS VL: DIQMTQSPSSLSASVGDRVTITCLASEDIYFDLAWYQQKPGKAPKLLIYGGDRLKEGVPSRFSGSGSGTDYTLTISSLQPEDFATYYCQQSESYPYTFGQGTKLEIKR
Result: 0.56
